# assayed.target: human CHRM2 (M2) (Homo sapiens)
# Construct: purchased Eurofins Cerep (SafetyScreen44), recognised from the panel format
# Sequence (P08172 1-466): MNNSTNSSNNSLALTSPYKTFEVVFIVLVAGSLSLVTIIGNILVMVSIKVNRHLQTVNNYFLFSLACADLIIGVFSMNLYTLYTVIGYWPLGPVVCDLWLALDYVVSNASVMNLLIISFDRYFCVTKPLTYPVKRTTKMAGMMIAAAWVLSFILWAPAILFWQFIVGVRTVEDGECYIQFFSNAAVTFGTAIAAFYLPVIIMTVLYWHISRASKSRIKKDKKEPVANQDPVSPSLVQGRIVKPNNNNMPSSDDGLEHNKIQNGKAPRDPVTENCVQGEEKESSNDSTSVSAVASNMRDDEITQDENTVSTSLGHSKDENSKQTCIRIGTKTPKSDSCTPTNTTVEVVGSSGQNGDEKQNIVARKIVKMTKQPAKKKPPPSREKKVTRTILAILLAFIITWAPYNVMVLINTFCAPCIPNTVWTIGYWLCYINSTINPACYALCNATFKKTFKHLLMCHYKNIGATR
# protocol.text: Eurofins CEREP panel, M2
# Type: binding
# experimental.conditions: M2 (h) (antagonist radioligand); test compound concentration 10 uM
Label criterion not met if perc_inhibition (% inhibition of the binding of a ligand specific for each target) falls below 20%; label criterion met in every other case.

Entry C[C@H](C(=O)O)[C@@H](NC(=O)c1ncnc2[nH]ccc12)c1ccc(Br)cc1 : is its perc_inhibition (% inhibition of the binding of a ligand specific for each target) no less than 20%?
criterion not met

# bool: perc_inhibition (% inhibition of the binding of a ligand specific for each target) of Cn1ncc(-c2cc3c(N[C@@H](c4ccc5c(n4)OCCO5)C(C)(C)C)ncnc3[nH]2)c1C#N >= 20%
criterion met

Identify whether the reported perc_inhibition (% inhibition of the binding of a ligand specific for each target) of the following compound is 20% or greater: COc1ccc([C@H](Cc2nnn[nH]2)NC(=O)c2ncnc3[nH]ccc23)cc1
criterion not met

API: above_or_equal(metric=perc_inhibition (% inhibition of the binding of a ligand specific for each target), cutoff=20%) for item CC(C)[C@H](Nc1ncnc2[nH]c(-c3cnn(C)c3C#N)cc12)c1ccc2c(n1)OCCO2
criterion not met

Form field: perc_inhibition (% inhibition of the binding of a ligand specific for each target) at least 20%? Entry: CNCc1cc(-c2cc3c(N[C@@H](c4ccc5c(c4)S(=O)(=O)CCC5)C(C)C)ncnc3[nH]2)co1
criterion met

Tell me whether perc_inhibition (% inhibition of the binding of a ligand specific for each target) is at least 20% here: CC(C)[C@@H](Nc1ncnc2[nH]c(-c3cnn(C)c3C#N)cc12)c1ccc2c(n1)OCCO2
criterion not met

Quick check: does CC(C)[C@H](Nc1ncnc2[nH]ccc12)c1ccc2c(c1)S(=O)(=O)CCC2 have perc_inhibition (% inhibition of the binding of a ligand specific for each target) greater than or equal to 20%?
criterion met
